Molecular target: His-LexA (Synechocystis sp. PCC 6803) (UniProt P73722)
Sequence: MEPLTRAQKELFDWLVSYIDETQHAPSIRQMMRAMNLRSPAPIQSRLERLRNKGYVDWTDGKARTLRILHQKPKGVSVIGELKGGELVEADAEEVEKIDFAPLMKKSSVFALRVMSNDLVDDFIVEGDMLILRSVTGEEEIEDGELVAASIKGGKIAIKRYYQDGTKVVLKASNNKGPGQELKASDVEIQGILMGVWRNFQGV
Test: EMSA
Details: Roche DIG gel shift kit 2nd generation buffer per manufacturer plus 1 mM DTT, 25 min at room temperature, 6% polyacrylamide gel; 5x and 50x unlabeled …
EXPERIMENTAL_READOUT: binding

TTGTTCAAGATCATTAGGCTTTAGTATATTTATAGTGATCAAAAAAGCAAGTGGTGAAAGAAACACCCAGACAAATATTCACAAAACTTAATTTTACTTAACAAATCATAATCCAGTTACGCAGTTACCACCTACACGGGAACCAGAACGCACGATTCCCAAGCCGGAAGAAATTACTAAGCATGGCTCATAGGATGTTCTAC (double strand) [pilA7 promoter] = binds
